- experimental-target: HIV-1 Env of isolate MGRM-G-014 (subtype G), on pseudovirus (HIV-1)
- measurement-notes: cell-based or functional assay
For each entry below, report its IC50 (µg/mL), neutralization of pseudovirus value.
API: value field is a number in µg/mL; no unit string.

Form field: reported IC50 (µg/mL), neutralization of pseudovirus of PGT-125 (antibody, V domains shown) VH: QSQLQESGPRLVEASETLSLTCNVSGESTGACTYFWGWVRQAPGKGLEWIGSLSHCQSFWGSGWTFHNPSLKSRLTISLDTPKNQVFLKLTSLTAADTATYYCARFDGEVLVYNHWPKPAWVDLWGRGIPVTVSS VL: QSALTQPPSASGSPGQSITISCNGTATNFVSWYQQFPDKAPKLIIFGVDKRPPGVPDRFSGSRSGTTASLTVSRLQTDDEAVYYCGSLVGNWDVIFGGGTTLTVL 0.007

Form field: reported IC50 (µg/mL), neutralization of pseudovirus of PGT-131 (antibody, V domains shown) VH: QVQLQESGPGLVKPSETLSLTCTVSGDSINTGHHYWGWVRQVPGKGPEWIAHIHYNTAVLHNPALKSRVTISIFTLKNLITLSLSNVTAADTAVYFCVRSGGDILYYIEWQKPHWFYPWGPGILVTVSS VL: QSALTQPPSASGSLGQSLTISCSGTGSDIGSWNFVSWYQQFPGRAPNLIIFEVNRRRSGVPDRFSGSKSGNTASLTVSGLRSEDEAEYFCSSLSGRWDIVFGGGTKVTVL 4.31

Form field: reported IC50 (µg/mL), neutralization of pseudovirus of PGT-128 (antibody, V domains shown) VH: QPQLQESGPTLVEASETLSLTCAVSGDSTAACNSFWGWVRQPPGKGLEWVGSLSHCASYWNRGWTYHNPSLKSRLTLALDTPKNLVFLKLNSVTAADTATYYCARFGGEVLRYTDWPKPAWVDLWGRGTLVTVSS VL: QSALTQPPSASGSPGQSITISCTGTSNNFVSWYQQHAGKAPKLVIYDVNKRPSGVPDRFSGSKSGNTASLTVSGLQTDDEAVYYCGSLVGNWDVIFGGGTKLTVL 0.004
